System: HCT-116 colon
Experiment: NCI-60 one-dose screen, 48 h
Conditions: 10 µM unless noted
The panel holds about 83,000 compounds, 20% with a hit somewhere; the sample as a whole holds those more often. Calls of active or inactive are those of the source. Rule for the calls: active = growth percent below 10; inactive = the rest.
Possible outcomes: 1.0 = active, 0.0 = inactive

> print(dat)
                                    compound  class.name
 1                  N=C1C=C(N)C(=O)c2ccccc21         1.0
 2                 Cc1cc(=O)oc2cc(O)cc(O)c12         0.0
 3  COc1ccc(NC(=O)/C(=C/N2C(=O)/C(=C/c3ccc(OC)c(OC)c3)NC2=S)C(C)=O)cc1         0.0
 4                 O=C1C=CC(=O)N1c1ccc(O)cc1         0.0
 5                      Oc1ccccc1N=Cc1ccccc1         0.0
 6   CC(C)(C)CC(C)(C)c1ccc(OCCOCCSC(=N)N)cc1         1.0
 7     C/C(=N\NC(=S)N1CC2CCC(CC2)C1)c1ccccn1         1.0
 8  N#CC(I)CS(=O)(=O)c1ccccc1 (stereo not drawn)         1.0
 9                     CC(C)(C)c1ccc(CCO)cc1         0.0
10      NC(=S)N/N=C\c1nccc2c(C(F)(F)F)cccc12         1.0
11  CCN(CC)CC(O)CNc1ccc(NCC2CO2)c2c1C(=O)c1ccccc1C2=O (stereo not drawn)         1.0
12               O=C(/C=C/c1ccccc1)c1ccccc1O         0.0
13              CCc1cccc(CC)c1N1C(=O)C=CC1=O         0.0
